Target: T1, native human glycophorin A protein (human, UniProt P02724 20-150)
T1 construct: mature; also called Hu-nat GPA
T1 sequence (looked up): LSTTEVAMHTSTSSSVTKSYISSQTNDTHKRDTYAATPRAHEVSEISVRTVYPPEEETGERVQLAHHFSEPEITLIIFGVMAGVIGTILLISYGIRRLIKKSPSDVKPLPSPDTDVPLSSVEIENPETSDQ
Test: ELISA, Fab on coated native human GPA
Reported Metric: binding in ELISA relative to parental Fab

binder="TPP-5339, Hu6C12-24 Fab variant VH: (E1Q, I48M, L70M, T72R, K74T, R84S, D89E, Q97A, T98R) (Fab, V domains shown, Built on the parental Fab TPP-4935) VH: QVQLVQSGAEVKKPGASVKVSCKASGYTFTTYTIHWVRQAPGQGLEWMGYINPSSDYTRYNPKFKDRVTMTRDTSTSTAYMELSSLRSEDTAVYYCARGTRDYWGQGTTVTVSS VL: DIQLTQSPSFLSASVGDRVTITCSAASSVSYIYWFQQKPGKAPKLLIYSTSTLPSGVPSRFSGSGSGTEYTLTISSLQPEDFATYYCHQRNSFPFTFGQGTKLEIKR" measured_result="0 relative to parental Fab"
binder="TPP-5678, Hu6C12-24 Fab variant VH: (I48M, D66G, L70M, T72R) (Fab, V domains shown, Built on the parental Fab TPP-4935) VH: EVQLVQSGAEVKKPGASVKVSCKASGYTFTTYTIHWVRQAPGQGLEWMGYINPSSDYTRYNPKFKGRVTMTRDKSTSTAYMELRSLRSDDTAVYYCQTGTRDYWGQGTTVTVSS VL: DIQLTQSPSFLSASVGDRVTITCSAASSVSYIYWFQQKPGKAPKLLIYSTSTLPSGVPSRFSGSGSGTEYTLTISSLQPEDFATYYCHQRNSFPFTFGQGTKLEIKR" measured_result="1.2 relative to parental Fab"

# input for lookup
Using known records, supply binding in ELISA relative to parental Fab for TPP-5700, Hu6C12-24 Fab variant VL: (S24R, A26S, F95Y) (Fab, V domains shown, Built on the parental Fab TPP-4935) VH: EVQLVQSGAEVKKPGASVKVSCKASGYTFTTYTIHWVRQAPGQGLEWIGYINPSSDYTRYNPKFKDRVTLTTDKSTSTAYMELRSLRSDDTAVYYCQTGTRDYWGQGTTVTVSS VL: DIQLTQSPSFLSASVGDRVTITCRASSSVSYIYWFQQKPGKAPKLLIYSTSTLPSGVPSRFSGSGSGTEYTLTISSLQPEDFATYYCHQRNSFPYTFGQGTKLEIKR
2.5 relative to parental Fab
